# system-tested: OpuAR Y^94F/R^100F (Bacillus infantis, UniProt U5LJR5, R100F/Y94F)
# measurement-description: biochemical
# Format: binding
# settings: OpuAR double variant Y94F/R100F; read-out: Kd
assay-endpoint: pKd
Worth noting: pKd values are minus log10 of concentrations stated in mol/L.

Query: pKd; subject: C[N+](C)(C)CC(=O)[O-] [glycine betaine]
4.15

----------
# system-tested: OpuAR R^100F (Bacillus infantis, UniProt U5LJR5, R100F)
# Sequence (U5LJR5 entry or part of it R100F): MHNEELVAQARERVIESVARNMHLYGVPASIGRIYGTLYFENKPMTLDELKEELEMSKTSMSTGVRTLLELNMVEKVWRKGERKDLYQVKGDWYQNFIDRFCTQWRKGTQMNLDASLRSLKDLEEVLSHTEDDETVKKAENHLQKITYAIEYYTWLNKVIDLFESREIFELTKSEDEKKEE
# measurement-description: biochemical
# Type: binding
assay-endpoint: pKd
Scale: pKd equals -log10([C]), with [C] in mol/L.

Entry C[N+](C)(C)CCO , system OpuAR R^100F (Bacillus infantis, UniProt U5LJR5, R100F): what pKd was measured?
4.00

----------
# system-tested: OpuAR N^96F (Bacillus infantis, UniProt U5LJR5, N96F)
# measurement-description: biochemical
# Type: binding
# settings: OpuAR variant N96F; read-out: Kd
assay-endpoint: pKd
pKd (log units): -log10 of the concentration in mol/L.

Need pKd of C[N+](C)(C)CC(=O)[O-] [glycine betaine] , thanks.
3.60

----------
# system-tested: OpuAR W^93F (Bacillus infantis, UniProt U5LJR5, W93F)
# measurement-description: biochemical
# Format: binding
assay-endpoint: Kd (µM)
Value expressed in µM; do not type the unit.

What value of Kd has been recorded for this entry: C[N+](C)(C)CCO [choline]
210

----------
# system-tested: OpuAR Y^94F/R^100F (Bacillus infantis, UniProt U5LJR5, R100F/Y94F)
# measurement-description: biochemical
# Type: binding
assay-endpoint: pKd
// scale note: pKd = -log10(conc_M); give the bare number

Notebook: pull reported pKd for OpuAR Y^94F/R^100F (Bacillus infantis, UniProt U5LJR5, R100F/Y94F), entry C[N+](C)(C)CCO
4.21
